# TEST TARGET: T1, human BCMA on NCI-H929 cells (human, UniProt Q02223 1-184)
# T1 construct: whole, on cells; also called H929 human cells that express BCMA; BCMA-expressing cell line (H929)
# T1 sequence (looked up): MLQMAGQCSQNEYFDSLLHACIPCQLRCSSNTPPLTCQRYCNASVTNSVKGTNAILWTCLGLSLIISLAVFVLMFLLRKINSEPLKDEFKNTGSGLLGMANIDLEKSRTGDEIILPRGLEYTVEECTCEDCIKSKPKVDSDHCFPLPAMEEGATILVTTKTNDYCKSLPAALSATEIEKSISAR
# ASSAY COMMENT: flow cytometry on H929 cells
# Description: Supernatants of the 4 test anti-BCMA antibodies were also tested by flow cytometry for binding to H929 cells. The samples were measured by flow cytometry using a Guava easyCyte 8HT instrument from EMD Millipore and analyzed using guavaSoft. Bound antibodies were detected with goat anti-human IgG F(ab)2 conjugated to PE (Southern Biotech 2042-09). All antibodies were diluted in PBS with 1% BSA. Positive staining was determined by comparison to staining with a human IgG1 isotype control.
MEASURE NAME: binding result

* heavy chain-only anti-BCMA antibody (UniAb) with the heavy chain variable region of SEQ ID NO: 13 (antibody, V domains shown, Heavy chain-only antibody expressed in HEK cells (CH1 deleted, no light chain), tested as supernatant; also called anti-BCMA UniAb; HCAb) VH: QVQLVESGGGLVQPGGSLRLSCAASGFTFSSHAMTWVRQAPGKGLEWVAAISGSGDFTHYADSVKGRFTISRDNSKNTVSLQMNNLRAEDTAVYYCAKDEDGGSLLGYRGQGTLVTVSS | binds
* heavy chain-only anti-BCMA antibody (UniAb) with the heavy chain variable region of SEQ ID NO: 15 (antibody, V domains shown, Heavy chain-only antibody expressed in HEK cells (CH1 deleted, no light chain), tested as supernatant; also called anti-BCMA UniAb; HCAb) VH: EVQLLESGGGLVQPGGSLRLSCAASGFTFSSYAMSWVRQAPGKGLEWVSSISGSGDYIYYADSVKGRFTISRDISKNTLYLQMNSLRAEDTAVYYCAKEGTGANSSLADYRGQGTLVTVSS | binds
* heavy chain-only anti-BCMA antibody (UniAb) with the heavy chain variable region of SEQ ID NO: 12 (antibody, V domains shown, Heavy chain-only antibody expressed in HEK cells (CH1 deleted, no light chain), tested as supernatant; also called anti-BCMA UniAb; HCAb) VH: QVQLVESGGGLVQPGGSLRLSCAASGFTFTNHAMSWVRQAPGKGLELVSSISGNGRTTYYADSVKGRFTISRDISKNTLDLQMNSLRAEDTAVYYCAKDGGETLVDSRGQGTLVTVSS | binds
* heavy chain-only anti-BCMA antibody (UniAb) with the heavy chain variable region of SEQ ID NO: 14 (antibody, V domains shown, Heavy chain-only antibody expressed in HEK cells (CH1 deleted, no light chain), tested as supernatant; also called anti-BCMA UniAb; HCAb) VH: EVQLLESGGGLIQPGGSLRLSCAASGFTFSSHAMTWVRQAPGKGLEWVSAISGSGDYTHYADSVKGRFTISRDNSKNTVYLQMNSLRAEDSAVYYCAKDEDGGSLLGHRGQGTLVTVSS | binds

# credit: patent US20210147564A1
